Biological target: T1, G9a and GLP (Homo sapiens, UniProt Q96KQ7+Q9H9B1)
T1 sequence (Q96KQ7 2-1210 limits assumed): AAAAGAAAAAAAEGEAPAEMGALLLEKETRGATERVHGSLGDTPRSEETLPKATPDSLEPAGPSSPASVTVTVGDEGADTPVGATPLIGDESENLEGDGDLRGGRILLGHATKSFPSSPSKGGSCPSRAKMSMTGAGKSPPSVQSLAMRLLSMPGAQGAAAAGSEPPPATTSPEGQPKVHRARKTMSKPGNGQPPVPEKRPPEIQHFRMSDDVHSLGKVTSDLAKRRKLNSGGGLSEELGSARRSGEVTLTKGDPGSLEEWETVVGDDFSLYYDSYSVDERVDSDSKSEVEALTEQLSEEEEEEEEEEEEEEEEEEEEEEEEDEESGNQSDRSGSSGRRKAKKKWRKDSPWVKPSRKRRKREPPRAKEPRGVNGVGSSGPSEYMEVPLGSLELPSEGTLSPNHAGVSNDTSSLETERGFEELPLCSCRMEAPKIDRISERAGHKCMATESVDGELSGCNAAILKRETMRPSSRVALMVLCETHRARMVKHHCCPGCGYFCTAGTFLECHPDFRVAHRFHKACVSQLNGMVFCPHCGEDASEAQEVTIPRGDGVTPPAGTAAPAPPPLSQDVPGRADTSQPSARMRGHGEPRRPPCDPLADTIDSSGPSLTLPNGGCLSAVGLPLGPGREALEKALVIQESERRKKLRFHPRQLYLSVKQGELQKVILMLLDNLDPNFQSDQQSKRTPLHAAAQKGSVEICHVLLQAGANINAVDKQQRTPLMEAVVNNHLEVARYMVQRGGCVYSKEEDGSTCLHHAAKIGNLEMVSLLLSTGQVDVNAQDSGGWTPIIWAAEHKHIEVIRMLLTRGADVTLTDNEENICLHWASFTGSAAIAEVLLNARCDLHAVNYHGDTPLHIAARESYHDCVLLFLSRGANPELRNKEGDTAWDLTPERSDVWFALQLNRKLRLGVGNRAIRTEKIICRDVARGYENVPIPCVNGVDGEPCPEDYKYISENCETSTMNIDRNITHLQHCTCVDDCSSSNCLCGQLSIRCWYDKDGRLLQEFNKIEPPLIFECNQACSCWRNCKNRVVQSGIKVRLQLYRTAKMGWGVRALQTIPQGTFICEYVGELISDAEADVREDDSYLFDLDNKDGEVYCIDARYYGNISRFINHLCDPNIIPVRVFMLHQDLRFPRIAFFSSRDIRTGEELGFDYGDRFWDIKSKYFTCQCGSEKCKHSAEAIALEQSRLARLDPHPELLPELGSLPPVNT
T1 sequence (Q9H9B1 2-1298 limits assumed): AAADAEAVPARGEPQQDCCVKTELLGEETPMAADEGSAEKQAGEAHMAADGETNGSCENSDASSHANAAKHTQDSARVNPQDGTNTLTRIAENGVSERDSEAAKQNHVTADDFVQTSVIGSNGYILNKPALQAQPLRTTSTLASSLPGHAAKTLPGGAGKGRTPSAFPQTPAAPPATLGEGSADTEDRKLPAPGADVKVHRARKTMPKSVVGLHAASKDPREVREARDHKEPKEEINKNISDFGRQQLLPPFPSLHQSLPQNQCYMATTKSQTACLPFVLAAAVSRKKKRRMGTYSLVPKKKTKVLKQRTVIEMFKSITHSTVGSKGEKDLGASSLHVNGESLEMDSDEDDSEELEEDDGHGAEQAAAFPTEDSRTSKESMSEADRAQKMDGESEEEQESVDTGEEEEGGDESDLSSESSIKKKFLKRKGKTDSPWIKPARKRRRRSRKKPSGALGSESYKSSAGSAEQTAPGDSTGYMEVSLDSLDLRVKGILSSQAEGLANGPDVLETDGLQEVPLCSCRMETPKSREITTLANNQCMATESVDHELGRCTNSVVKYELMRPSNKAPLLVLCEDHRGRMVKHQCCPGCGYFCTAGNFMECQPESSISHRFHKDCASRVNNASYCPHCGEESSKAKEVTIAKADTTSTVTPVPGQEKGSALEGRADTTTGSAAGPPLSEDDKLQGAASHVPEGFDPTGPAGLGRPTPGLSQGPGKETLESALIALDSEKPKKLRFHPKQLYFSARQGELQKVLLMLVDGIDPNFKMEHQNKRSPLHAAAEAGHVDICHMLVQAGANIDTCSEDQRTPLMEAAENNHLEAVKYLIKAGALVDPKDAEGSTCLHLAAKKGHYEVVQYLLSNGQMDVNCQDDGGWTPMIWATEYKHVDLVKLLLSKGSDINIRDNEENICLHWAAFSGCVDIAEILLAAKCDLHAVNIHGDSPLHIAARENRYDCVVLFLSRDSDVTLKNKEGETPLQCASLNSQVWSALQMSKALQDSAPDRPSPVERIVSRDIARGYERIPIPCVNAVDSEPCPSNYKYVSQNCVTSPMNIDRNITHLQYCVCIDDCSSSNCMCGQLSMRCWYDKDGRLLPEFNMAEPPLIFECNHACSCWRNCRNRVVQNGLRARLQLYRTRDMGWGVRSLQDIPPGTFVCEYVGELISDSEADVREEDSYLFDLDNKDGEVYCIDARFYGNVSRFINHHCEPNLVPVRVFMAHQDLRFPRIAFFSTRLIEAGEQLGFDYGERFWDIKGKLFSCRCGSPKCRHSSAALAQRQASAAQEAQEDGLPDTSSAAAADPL
Test: Triple SILAC pull-down after UNC0638 treatment of 293T cells, DMSO/UNC0638 ratio of protein captured by 3×MBT;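 note: mass spectrometry (Q-Exactive) SILAC quantitation, DMSO/UNC0638 ratio computed after subtracting 3×MBTD355N mutant pull-down background, only proteins with at least twofold 3×MBT over mutant signal considered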
Assay type: cell-based
Parameters: cells were treated for 24 hours with UNC0638 at 2.5 μM or DMSO vehicle control; endogenous in cells; host or cells: HEK 293T
Settings: SILAC ratio DMSO/UNC0638 of protein pulled down with 3xMBT; UNC0638 in heavy SILAC media
measure_name: Relative to UNC0638 UNC Heavy (log base 2)
State just the number; it will be interpreted in log base 2.

Would you mind telling me what Relative to UNC0638 UNC Heavy value was observed for PABPN1 (protein, UniProt Q86U42 2-306, looked up) Polyadenylate-binding protein …: AAAAAAAAAAGAAGGRGSGPGRRRHLVPGAGGEAGEGAPGGAGDYGNGLESEELEPEELLLEPEPEPEPEEEPPRPRAPPGAPGPGPGSGAPGSQEEEEEPGLVEGDPGDGAIEDPELEAIKARVREMEEEAEKLKELQNEVEKQMNMSPPPGNAGPVIMSIEEKMEADARSIYVGNVDYGATAEELEAHFHGCGSVNRVTILCDKFSGHPKGFAYIEFSDKESVRTSLALDESLFRGRQIKVIPKRTNRPGISTTDRGFPRARYRARTTNYNSSRSRFYSGFNSRPRGRVYRGRARATSWYSPY ? 0.21

Look at this molecule and give its reported Relative to UNC0638 UNC Heavy. RBMX (protein, UniProt P38159 1-391, looked up) RNA-binding motif protein, X …: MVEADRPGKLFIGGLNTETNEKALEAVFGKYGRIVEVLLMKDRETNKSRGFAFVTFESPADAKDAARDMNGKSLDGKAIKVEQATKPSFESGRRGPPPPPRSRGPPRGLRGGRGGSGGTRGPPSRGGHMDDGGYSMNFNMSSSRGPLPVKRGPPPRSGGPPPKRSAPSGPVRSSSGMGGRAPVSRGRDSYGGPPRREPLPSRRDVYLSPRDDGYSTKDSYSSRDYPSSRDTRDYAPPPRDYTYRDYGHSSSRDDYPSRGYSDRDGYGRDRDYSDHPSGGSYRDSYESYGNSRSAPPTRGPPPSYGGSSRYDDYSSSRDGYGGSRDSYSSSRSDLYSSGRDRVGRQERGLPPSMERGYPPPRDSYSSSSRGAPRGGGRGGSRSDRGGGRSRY 0.11

Field request: Relative to UNC0638 UNC Heavy | item: HNRNPA1 (protein, UniProt P09651 1-372, looked up) Heterogeneous nuclear …: MSKSESPKEPEQLRKLFIGGLSFETTDESLRSHFEQWGTLTDCVVMRDPNTKRSRGFGFVTYATVEEVDAAMNARPHKVDGRVVEPKRAVSREDSQRPGAHLTVKKIFVGGIKEDTEEHHLRDYFEQYGKIEVIEIMTDRGSGKKRGFAFVTFDDHDSVDKIVIQKYHTVNGHNCEVRKALSKQEMASASSSQRGRSGSGNFGGGRGGGFGGNDNFGRGGNFSGRGGFGGSRGGGGYGGSGDGYNGFGNDGGYGGGGPGYSGGSRGYGSGGQGYGNQGSGYGGSGSYDSYNNGGGGGFGGGSGSNFGGGGSYNDFGNYNNQSSNFGPMKGGNFGGRSSGPYGGGGQYFAKPRNQGGYGGSSSSSSYGSGRRF 0.09

These entries and their values trace back to patent US20140274782A1.
